Reference source: ChEMBL document CHEMBL1201862

Record form. Attribute: GI50. Fill in for each entry.
System: OVCAR-4
Procedure summary: NCI tumour cell line growth inhibition, 48 h
Active and inactive are the calls of the source. Cut-off read from the data, not from the text of the source: active = GI50 up to about 1.1 µM and inactive = higher.

### Prompt # lookup: GI50 of CO/N=C(\C)c1cccc(Nc2nc3ccccc3c3occc23)c1
### Response 14.8 µM (inactive)

### Prompt # lookup: GI50 of CC(=O)N1C(CCc2ccccc2)CC(C)(C=O)C1Cc1ccc(O[Si](C(C)C)(C(C)C)C(C)C)cc1 (stereo unspecified)
### Response 3.7 µM (inactive)

### Prompt # lookup: GI50 of C(=N\OCc1ccccc1)/c1ncccc1C1OCCO1
### Response > 100 µM (inactive)

### Prompt # lookup: GI50 of Cn1c(=O)c2nc(-c3ccc(Cl)cc3)oc2n(C)c1=O
### Response > 100 µM (inactive)

### Prompt # lookup: GI50 of O=C1CCCCc2cccc(O)c21
### Response > 100 µM (inactive)

### Prompt # lookup: GI50 of COc1cc2c(cc1OC)C(Cc1ccccc1CCCl)=NCC2
### Response 45.6 µM (inactive)

* * *

Record form. Attribute: GI50. Fill in for each entry.
Tested on: SK-OV-3
Procedure summary: NCI tumour cell line growth inhibition, 48 h
The source made the active and inactive calls. Cut-off read from the data, not from the text of the source: active = GI50 up to about 1.1 µM and inactive = higher.

### Prompt # lookup: GI50 of O=C(N/N=C\c1ccc([N+](=O)[O-])s1)c1ccncc1
### Response 38.5 µM (inactive)

### Prompt # lookup: GI50 of CCCCCCCCCCOC1C(C(C)OCCCN(C)C)OC2OC3(CCCCC3)OC21 (stereo not given)
### Response 18.5 µM (inactive)

### Prompt # lookup: GI50 of N#CC(C(=O)C(=O)Nc1ccc(Cl)c(Cl)c1)c1ccc(Cl)cc1 (stereo not given)
### Response > 100 µM (inactive)

### Prompt # lookup: GI50 of COc1ccc(/C=C(\C#N)c2nc(N)nc(N3N=C(C)CC3(C)C)n2)c(O)c1
### Response 26.9 µM (inactive)

### Prompt # lookup: GI50 of O=C1c2ccccc2C(=O)N1CC1S(=O)(=O)OCCOS1(=O)=O
### Response > 100 µM (inactive)

* * *

Tested on: LOX IMVI
Procedure summary: NCI tumour cell line growth inhibition, 48 h
Active and inactive are the calls of the source. Rule as the data show it: active = GI50 up to about 1.1 µM and inactive = higher.
Record form. Attribute: GI50. Fill in for each entry.

### Prompt # lookup: GI50 of CCCCCCCN(CCCCCCC)CC(O)c1cc2ccccc2c2cc(Br)ccc12 (stereo unspecified)
### Response 14.2 µM (inactive)

### Prompt # lookup: GI50 of COC(=O)c1ccc(/N=N/N(C)CO)cc1
### Response > 100 µM (inactive)

### Prompt # lookup: GI50 of N#CC(OC1OC(COC2OC(CO)C(O)C(O)C2O)C(O)C(O)C1O)c1ccccc1 (stereo unspecified)
### Response > 225 µM (inactive)

### Prompt # lookup: GI50 of CC(O)/C=C/C(CCC(C)CO)C(C)C (stereo unspecified)
### Response > 100 µM (inactive)

### Prompt # lookup: GI50 of CCC(COC(=O)CC[C@@H](NC(=O)C(C)NC(=O)C(C)OC1C(O)C(CO)OC(OCc2ccccc2)C1NC(C)=O)C(N)=O)NC1c2ccccc2Nc2cccc([N+](=O)[O-])c21 (stereo partly specified)
### Response > 100 µM (inactive)

### Prompt # lookup: GI50 of COC(=O)C12CC(c3ccccc31)C1C(=O)OC(=O)C12 (stereo unspecified)
### Response > 100 µM (inactive)
